As an illustration, consider measured AC50 for molecules on Cytochrome P450 1A2 (Homo sapiens, UniProt P05177).
Sequence (P05177 whole entry): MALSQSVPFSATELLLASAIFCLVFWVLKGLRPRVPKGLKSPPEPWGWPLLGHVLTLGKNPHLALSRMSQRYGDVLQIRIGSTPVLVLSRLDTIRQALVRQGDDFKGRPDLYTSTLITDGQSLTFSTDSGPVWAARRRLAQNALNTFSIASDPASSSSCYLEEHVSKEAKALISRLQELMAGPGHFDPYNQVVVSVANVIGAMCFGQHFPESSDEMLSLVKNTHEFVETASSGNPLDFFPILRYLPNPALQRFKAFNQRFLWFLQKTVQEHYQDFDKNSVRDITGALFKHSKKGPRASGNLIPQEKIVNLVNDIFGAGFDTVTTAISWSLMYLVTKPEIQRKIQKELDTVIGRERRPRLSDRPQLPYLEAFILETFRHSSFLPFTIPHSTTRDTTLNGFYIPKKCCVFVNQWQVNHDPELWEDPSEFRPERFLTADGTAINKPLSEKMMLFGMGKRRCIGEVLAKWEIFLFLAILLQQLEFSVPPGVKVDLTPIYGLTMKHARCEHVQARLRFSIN

[
  {
    "molecule": "CC1CCCCN1c1cc(C#N)c(C#N)cc1[N+](=O)[O-] (stereo not drawn)",
    "AC50": "3.16 µM (inconclusive)"
  },
  {
    "molecule": "O=C(Nc1cccc2ncccc12)c1cccc(F)c1",
    "AC50": "15.8 µM (inconclusive)"
  },
  {
    "molecule": "O=C(c1ccco1)N1CCC2(CCCN(c3ccccn3)C2)CC1",
    "AC50": "10 µM (inconclusive)"
  },
  {
    "molecule": "COCCNC(=O)C(c1ccc(C)o1)N(CC1CCCO1)C(=O)Cn1nnc2ccccc21 (stereo not drawn)",
    "AC50": "12.6 µM (inconclusive)"
  },
  {
    "molecule": "C/C(N)=C(/C#N)C(=O)CSc1nnc(COc2cc(C)ccc2C)o1",
    "AC50": "4.47 µM (inconclusive)"
  },
  {
    "molecule": "Cc1cccc(OC2(c3ccccc3)OC(=O)c3ccccc32)c1C (stereo not drawn)",
    "AC50": "14.1 µM (inconclusive)"
  },
  {
    "molecule": "COCCn1c(=O)c(-c2ccc(F)cc2)nc2cnc(Nc3cccc(OC)c3)nc21",
    "AC50": "3.16 µM (inconclusive)"
  },
  {
    "molecule": "CCCn1nc(Oc2nc(NCC)nc(NCC)n2)ccc1=O",
    "AC50": "15.8 µM (inconclusive)"
  }
]
